# System: E. coli NCTC 13353 producing CTX-M15 and OXA 1 beta-lactamase enzymes
# Method: Time kill study against E. coli NCTC 13353
# Format: cell-based
# Cond: agent alone 1 mcg/ml; 6 hours
Each record is given yes if its reported Bacterial count (Log10 CFU/ml) 6 hours is strictly below 9 Log10 CFU/ml. Records at or above 9 Log10 CFU/ml are given no.

Structure string	Study system	Qualitative label
CO/N=C(\C(=O)N[C@@H]1C(=O)N2C(C(=O)O)=C(COC(N)=O)CS[C@H]12)c1ccco1	E. coli NCTC 13353 producing CTX-M15 and OXA 1 beta-lactamase enzymes	no
C[C@@H](O)[C@H]1C(=O)N2C(C(=O)O)=C(SCCN=CN)C[C@H]12	E. coli NCTC 13353 producing CTX-M15 and OXA 1 beta-lactamase enzymes	yes
